I'd appreciate it if you could supply pIC50 values for the items below.
TESTED_SYSTEM: CDK9/CycT1 (Homo sapiens, UniProt P50750)
Construct: Recombinant full-length His-tagged human CDK9 and CycT1; purchased Life Technologies PV4131; host or cells: insect cells
Sequence (P50750 whole entry): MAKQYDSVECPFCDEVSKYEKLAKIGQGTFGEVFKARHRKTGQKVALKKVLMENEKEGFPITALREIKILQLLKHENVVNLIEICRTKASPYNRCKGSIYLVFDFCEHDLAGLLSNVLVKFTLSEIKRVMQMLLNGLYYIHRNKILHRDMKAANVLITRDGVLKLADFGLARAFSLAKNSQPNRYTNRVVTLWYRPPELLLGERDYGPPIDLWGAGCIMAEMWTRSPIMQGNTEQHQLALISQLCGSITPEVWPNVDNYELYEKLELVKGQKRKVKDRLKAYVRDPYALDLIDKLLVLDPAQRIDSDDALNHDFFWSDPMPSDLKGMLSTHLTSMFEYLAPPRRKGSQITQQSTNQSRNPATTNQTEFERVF
Sequence (O60563 whole entry partner): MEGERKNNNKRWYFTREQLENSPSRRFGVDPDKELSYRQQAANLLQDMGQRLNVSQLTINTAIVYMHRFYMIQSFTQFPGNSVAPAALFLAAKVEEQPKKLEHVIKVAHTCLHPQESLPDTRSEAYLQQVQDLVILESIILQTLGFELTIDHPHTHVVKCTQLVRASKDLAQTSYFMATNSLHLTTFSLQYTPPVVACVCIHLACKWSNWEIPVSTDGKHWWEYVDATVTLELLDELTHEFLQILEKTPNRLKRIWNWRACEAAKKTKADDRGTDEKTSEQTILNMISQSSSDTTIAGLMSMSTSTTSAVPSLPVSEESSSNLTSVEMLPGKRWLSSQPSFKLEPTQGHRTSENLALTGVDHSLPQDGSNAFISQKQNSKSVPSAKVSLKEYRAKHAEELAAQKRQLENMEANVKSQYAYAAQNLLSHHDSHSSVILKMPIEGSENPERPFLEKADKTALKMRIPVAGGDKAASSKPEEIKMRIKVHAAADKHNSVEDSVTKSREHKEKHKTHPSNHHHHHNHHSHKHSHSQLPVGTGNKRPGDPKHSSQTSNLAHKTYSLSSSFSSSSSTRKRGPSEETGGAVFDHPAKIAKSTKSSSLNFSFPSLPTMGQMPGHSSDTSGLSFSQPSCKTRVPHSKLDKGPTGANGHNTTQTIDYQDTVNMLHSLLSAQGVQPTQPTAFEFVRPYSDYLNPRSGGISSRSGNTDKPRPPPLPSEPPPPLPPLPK
TEST_SUMMARY: CDK9/CycT1 high ATP kinase assay (TR-FRET, 2 mM ATP)
Type: biochemical
CONDITIONS_USED: 2 mM ATP (high ATP); median; read-out: CDK9/CyclinT1, 2 mM ATP (high ATP), IC50 (median)
Description: CDK9/CycT1-inhibitory activity of compounds of the present invention at a high ATP concentration after preincubation of enzyme and test compounds was quantified employing the CDK9/CycT1 TR-FRET assay as described in the following paragraphs. Recombinant full-length His-tagged human CDK9 and CycT1, expressed in insect cells and purified by Ni-NTA affinity chromatography, were purchased from Life Technologies (Cat. No PV4131). As substrate for the kinase reaction biotinylated peptide biotin-Ttds-[…] […]
pIC50: −log10 of the molar value.

Illustrative cases are given below, each with its answer.
| TEST_SMILES | OBSERVABLE | REPORTED |
| --- | --- | --- |
| CC(C)(O)CNc1nc(NCc2nc3ccccc3[nH]2)n2ncc(Br)c2n1 | pIC50 | < 4.70 |
| Fc1cccc2[nH]c(CNc3nc(N4CC5CCC(C4)N5)nc4c(Cl)cnn34)nc12 | pIC50 | < 4.70 |
| Brc1cnn2c(NCc3nc4ccccc4[nH]3)nc(N3C[C@H]4CN[C@H]4C3)nc12.O=C(O)C(F)(F)F | pIC50 | < 4.70 |

Let us examine a further case.
[ask] Need pIC50, item "FC(F)(F)c1cnn2c(NCc3nc4ccccc4[nH]3)nc(N3CCOCC3)nc12"
[reply] < 4.70

----------
System: CAL-120, human breast adenocarcinoma cells
TEST_SUMMARY: Proliferation assay CAL-120 (crystal violet, 4 days)
Type: cell-based
CONDITIONS_USED: Homo sapiens, CAL-120, 96 h, CAL-120 cells, median, read-out: Prolif-CAL-120, IC50-[mol/l] (median)
I'd appreciate it if you could supply IC50 values for the items below.
Numbers only, in nM.

Illustrative cases are given below, each with its answer.
| TEST_SMILES | OBSERVABLE | MEASURE_UNIT | REPORTED |
| --- | --- | --- | --- |
| FC(F)(F)Oc1cccc2[nH]c(CNc3nc(N4C[C@H]5CC[C@@H](C4)N5)nc4c(Br)cnn34)nc12 | IC50 | nM | 30.8 |
| Brc1cnn2c(NCc3nc4ccccc4[nH]3)nc(N3C[C@@H]4C[C@H]3CN4)nc12 | IC50 | nM | 6.92 |
| Fc1ccc2[nH]c(CNc3nc(N4C[C@@H]5C[C@H]4CO5)nc4c(C5CC5)cnn34)nc2c1F | IC50 | nM | 8.14 |
| OC[C@@H]1CCCCN1c1nc(NCc2nnc(-c3ccccc3)[nH]2)n2ncc(Br)c2n1 | IC50 | nM | 49 |
| Fc1ccc(-c2cnn3c(NCc4nc5ccccc5[nH]4)nc(N4CCOCC4)nc23)cc1 | IC50 | nM | 47 |
| CN(C)[C@H]1CCN(c2nc(NCc3nc4ccccc4[nH]3)n3ncc(Br)c3n2)C1 | IC50 | nM | 68.8 |
| Cc1cc2nc(CNc3nc(N4CCOCC4)nc4c(Br)cnn34)[nH]c2cc1C | IC50 | nM | 3.36 |

Let us examine a further case.
[ask] Need IC50, item "CN1CCN(c2nc(NCc3nnc(-c4cccc(F)c4)[nH]3)n3ncc(Br)c3n2)CC1"
[reply] 17.1

----------
TESTED_SYSTEM: CDK12 (nuclear staining in CAL-120 cells) (Homo sapiens, UniProt Q9NYV4)
Construct: endogenous in cells; host or cells: CAL-120 human breast cancer cells (DSMZ ACC 459)
Sequence (Q9NYV4 whole entry): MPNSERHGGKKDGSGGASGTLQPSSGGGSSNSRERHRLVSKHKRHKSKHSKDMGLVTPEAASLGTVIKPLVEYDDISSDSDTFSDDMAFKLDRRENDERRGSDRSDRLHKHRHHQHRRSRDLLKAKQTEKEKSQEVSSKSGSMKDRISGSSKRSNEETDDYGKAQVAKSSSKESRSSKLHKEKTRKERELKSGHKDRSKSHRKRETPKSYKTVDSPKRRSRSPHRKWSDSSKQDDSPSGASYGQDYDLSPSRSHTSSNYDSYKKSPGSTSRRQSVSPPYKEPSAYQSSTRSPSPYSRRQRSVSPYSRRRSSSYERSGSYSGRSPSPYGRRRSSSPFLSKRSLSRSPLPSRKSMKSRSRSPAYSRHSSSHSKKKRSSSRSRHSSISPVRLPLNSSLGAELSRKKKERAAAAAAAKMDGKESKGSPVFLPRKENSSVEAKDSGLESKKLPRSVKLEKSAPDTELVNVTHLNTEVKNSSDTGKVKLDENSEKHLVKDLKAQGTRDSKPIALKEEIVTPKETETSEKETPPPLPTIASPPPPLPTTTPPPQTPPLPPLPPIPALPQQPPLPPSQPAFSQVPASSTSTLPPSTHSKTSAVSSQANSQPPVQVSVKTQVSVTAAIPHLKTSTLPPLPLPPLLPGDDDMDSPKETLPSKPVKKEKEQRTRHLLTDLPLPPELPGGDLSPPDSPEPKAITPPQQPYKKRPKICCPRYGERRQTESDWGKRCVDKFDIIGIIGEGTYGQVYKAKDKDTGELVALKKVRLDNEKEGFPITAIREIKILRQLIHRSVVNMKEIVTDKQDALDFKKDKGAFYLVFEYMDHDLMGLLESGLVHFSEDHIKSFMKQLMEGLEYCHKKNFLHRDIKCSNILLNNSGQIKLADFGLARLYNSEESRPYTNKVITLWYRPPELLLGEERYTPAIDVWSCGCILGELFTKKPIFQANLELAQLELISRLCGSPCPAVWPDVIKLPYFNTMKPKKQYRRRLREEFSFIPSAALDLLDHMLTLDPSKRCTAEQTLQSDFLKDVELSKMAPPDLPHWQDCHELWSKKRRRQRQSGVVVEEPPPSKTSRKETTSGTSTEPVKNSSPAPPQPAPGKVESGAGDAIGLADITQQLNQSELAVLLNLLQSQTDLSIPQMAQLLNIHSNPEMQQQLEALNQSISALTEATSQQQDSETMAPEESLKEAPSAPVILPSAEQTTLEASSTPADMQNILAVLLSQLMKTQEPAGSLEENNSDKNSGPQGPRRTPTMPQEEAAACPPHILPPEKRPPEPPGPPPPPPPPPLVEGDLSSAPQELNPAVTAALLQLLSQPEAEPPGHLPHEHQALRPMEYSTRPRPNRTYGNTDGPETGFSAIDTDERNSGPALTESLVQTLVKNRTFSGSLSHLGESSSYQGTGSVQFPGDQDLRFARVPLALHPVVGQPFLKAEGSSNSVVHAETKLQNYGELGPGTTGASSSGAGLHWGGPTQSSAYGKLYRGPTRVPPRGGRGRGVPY
Sequence (O75909 whole entry partner): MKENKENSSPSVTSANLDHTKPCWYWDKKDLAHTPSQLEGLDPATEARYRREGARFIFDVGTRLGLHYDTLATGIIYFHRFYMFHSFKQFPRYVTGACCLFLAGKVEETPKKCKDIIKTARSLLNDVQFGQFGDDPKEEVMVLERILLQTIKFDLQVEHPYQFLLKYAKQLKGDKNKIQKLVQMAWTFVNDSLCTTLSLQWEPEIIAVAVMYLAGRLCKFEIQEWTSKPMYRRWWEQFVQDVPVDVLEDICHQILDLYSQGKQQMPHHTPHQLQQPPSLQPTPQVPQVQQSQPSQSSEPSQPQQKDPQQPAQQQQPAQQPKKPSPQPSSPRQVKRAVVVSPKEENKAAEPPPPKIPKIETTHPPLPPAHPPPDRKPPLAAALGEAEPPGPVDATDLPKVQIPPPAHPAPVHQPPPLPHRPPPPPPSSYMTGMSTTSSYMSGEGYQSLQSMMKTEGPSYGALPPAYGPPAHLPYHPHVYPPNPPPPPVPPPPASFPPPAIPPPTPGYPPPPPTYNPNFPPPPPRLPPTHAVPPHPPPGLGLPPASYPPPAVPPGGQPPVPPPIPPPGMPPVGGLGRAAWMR
TEST_SUMMARY: CDK12 nuclear protein level: immunofluorescence/high content analysis (CAL-120)
Format: cell-based
CONDITIONS_USED: CAL-120 cells, 24 h, immunofluorescence; 50% reduction of nuclear CDK12 staining intensity; median; read-out: CDK12 degradation IF, DC50- [mol/l] (median)
I'd appreciate it if you could supply log10 DC50 values for the items below.
The common logarithm of DC50 in nM is what is listed.

| TEST_SMILES | log10 DC50 |
| --- | --- |
| CN(CC(C)(C)O)c1nc(NCc2nc3cc(F)c(Cl)cc3[nH]2)n2ncc(C3CC3)c2n1 | 0.74 |

Give log10 DC50 for each listed item.
1. Fc1ccccc1-c1cnc(CNc2nc(N3CCOCC3)nc3c(Br)cnn23)[nH]1
2. Fc1cc2nc(CNc3nc(N4CCOCC4)nc4c(C5CC5)cnn34)[nH]c2cc1Cl
3. Brc1cnn2c(NCc3nc4ccccc4[nH]3)nc(OC3CCCCC3)nc12
4. CN(CC(C)(C)O)c1nc(NCc2nc3c(F)c(F)ccc3[nH]2)n2ncc(Cl)c2n1
5. CC(C)c1cnn2c(NCc3nc4ccccc4[nH]3)nc(N3CCCOCC3)nc12

[reply]
1: 0.60; 2: 0.92; 3: 2.10; 4: 0.64; 5: 1.32

Give log10 DC50 for each listed item.
1. Cc1ccc2[nH]c(CNc3nc(N4C[C@@H]5CCCN[C@@H]5C4)nc4c(Br)cnn34)nc2c1
2. CCNc1nc(NCc2nc(-c3ccc(C)cc3)c[nH]2)n2ncc(Br)c2n1

[reply]
[-0.19, 1.77]

----------
TESTED_SYSTEM: CDK12 (nuclear staining in CAL-120 cells) (Homo sapiens)
Construct: endogenous in cells; host or cells: CAL-120 human breast cancer cells (DSMZ ACC 459)
TEST_SUMMARY: CDK12 nuclear protein level: immunofluorescence/high content analysis (CAL-120)
Type: cell-based
CONDITIONS_USED: CAL-120 cells, 24 h, immunofluorescence; 50% reduction of nuclear CDK12 staining intensity; median; read-out: CDK12 degradation IF, DC50- [mol/l] (median)
I'd appreciate it if you could supply DC50 values for the items below.
Give bare numbers, in nM.

| TEST_SMILES | MEASURE_UNIT | REPORTED |
| --- | --- | --- |
| COc1cccc2[nH]c(CNc3nc(N4CCN(C)CC4)nc4c(C5CC5)cnn34)nc12 | nM | 1.4 |
| CN1CCN(c2nc(NCc3nc4cc(C(F)(F)F)ccc4[nH]3)n3ncc(C4CC4)c3n2)CC1 | nM | 26.8 |
| Cc1ccc2[nH]c(CNc3nc(N4C[C@@H](C)N[C@@H](C)C4)nc4c(C5CC5)cnn34)nc2c1 | nM | 0.23 |

[ask] Need DC50, item "NC1CCN(c2nc(NCc3nc4ccccc4[nH]3)n3ncc(Br)c3n2)CC1"
[reply] 3.53

----------
TESTED_SYSTEM: CDK12 (nuclear staining in CAL-120 cells) (Homo sapiens)
Construct: endogenous in cells; host or cells: CAL-120 human breast cancer cells (DSMZ ACC 459)
TEST_SUMMARY: CDK12 nuclear protein level: immunofluorescence/high content analysis (CAL-120)
Type: cell-based
CONDITIONS_USED: ratio of IC50 CDK12 high ATP kinase assay to DC50 CDK12 degradation (IF, CAL-120)
I'd appreciate it if you could supply (IC50 CDK12 high ATP) to (Degradation DC50 CDK12) ratio values for the items below.

Give (IC50 CDK12 high ATP) to (Degradation DC50 CDK12) ratio for each listed item.
1. Cc1cc2nc(CNc3nc(N4CC5CCC(C4)N5)nc4c(C5CC5)cnn34)[nH]c2cc1C
2. Brc1cnn2c(NCc3nc4ccccc4[nH]3)nc(N3C[C@H]4CCCN[C@H]4C3)nc12

[reply]
[198, 2661]

Give (IC50 CDK12 high ATP) to (Degradation DC50 CDK12) ratio for each listed item.
1. Fc1ccc2[nH]c(CNc3nc(N4CCOCC4)nc4c(C(F)(F)F)cnn34)nc2c1
2. Cc1cnn2c(NCc3nc4c(F)c(F)ccc4[nH]3)nc(N3CC4CCC(C3)N4)nc12
3. Brc1cnn2c(NCc3nc4ccccc4[nH]3)nc(N3CCCC3)nc12

[reply]
1: 512; 2: >2712; 3: 1252

Give (IC50 CDK12 high ATP) to (Degradation DC50 CDK12) ratio for each listed item.
1. Fc1ccccc1-c1nnc(CNc2nc(N3CCOCC3)nc3c(Br)cnn23)[nH]1
2. CC(C)CNc1nc(NCc2nc3ccccc3[nH]2)n2ncc(Br)c2n1
3. COC1CCN(c2nc(NCc3nc4ccccc4[nH]3)n3ncc(Br)c3n2)CC1
4. CO[C@@H]1CCN(c2nc(NCc3nc4ccccc4[nH]3)n3ncc(Br)c3n2)C1
5. C[C@H]1COCCN1c1nc(NCc2nc3ccccc3[nH]2)n2ncc(Br)c2n1
6. Fc1cccc(-c2nnc(CNc3nc(N4CCOCC4)nc4c(Br)cnn34)[nH]2)c1
7. Cc1ccc2[nH]c(CNc3nc(N4C[C@@H]5CCCN[C@@H]5C4)nc4c(C5CC5)cnn34)nc2c1
8. Fc1ccc2[nH]c(CNc3nc(N4CCOCC4)nc4c(-c5ccnnc5)cnn34)nc2c1F

[reply]
>511
200
569
>287
669
871
3781
>2815

Give (IC50 CDK12 high ATP) to (Degradation DC50 CDK12) ratio for each listed item.
1. OCC1CCN1c1nc(NCc2nc3ccccc3[nH]2)n2ncc(Br)c2n1 (centres unmarked)
2. Brc1cnn2c(NCc3nnc(-c4ccccc4)[nH]3)nc(N3C[C@H]4C[C@@H]3CO4)nc12
3. Brc1cnn2c(NCc3nc4cccnc4[nH]3)nc(N3CCNCC3)nc12.O=CO
4. CC(C)c1cnn2c(NCc3ncc(-c4ccccc4)[nH]3)nc(N3CCN(C)CC3)nc12

[reply]
1. 359
2. 1176
3. 1056
4. 689
